test system: Candida albicans; assay: Antifungal activity against Candida albicans after 24 hrs by serial dilution method; type: functional
recorded.endpoint: MIC80 (µg/mL)
Give bare numbers, in µg/mL.

Query: Find the measured MIC80: item O=C(OC1CCNCC1)c1ccc2c(c1)c1c(n2CCCNCc2ccccc2)CCCC1 , target or system Candida albicans.
Result: 32

Query: GET /values?readout=MIC80&system=Candida albicans&item= O=C(Nc1ccc(Br)cc1)c1ccc2c(c1)c1c(n2CCCNCc2ccccc2)CCCC1
Result: 32

Query: Find the measured MIC80: item COc1ccc(CNCCCn2c3c(c4cc(C)ccc42)CCCC3)cc1 , target or system Candida albicans.
Result: 32

I need MIC80 for every entry listed below, if you could help.
1. Cc1ccc2c(c1)c1c(n2C[C@@H](O)CNC2CCCCC2)CCCC1
2. Cc1ccc2c(c1)c1c(n2CCCNc2ccccc2)CCCC1

Result:
64
64

Query: Checklist item: MIC80 tested on Candida albicans, entry Cc1ccc2c(c1)c1c(n2CCCNCc2cccnc2)CCCC1 , value?
Result: 64
